# experiment_description: protein stability index of a GFP-peptide fusion (yeast GPS) (PSI 1-4); higher = more stable; sorted into four equal gates, so the index is relative within each strain
# condition_parameters: san1∆
# protein stability index per entry

ESGLVNADLDVKDELMF [RPO21]    3.23
LFVCNKDPDVPLVLLQQ [POP3]    2.26
QLIKVAVHNGDRKHVAA [RPL9B]    2.28
LITLFNKGELETQPGCN [RPO31]    2.98
DFLGVASTGSGKTLAFV [PRP28]    2.92
EYEEWQKSVSLLSSESN [YDL116W/NUP84]    2.84
AKRDYIISRLNADFQKP [FAS1]    2.94
LREKEDKKNSSDPNNQS [YJL039C/NUP192]    3.17
DQNEFLLERTREIHNEA [FAS2]    2.99
NVSLIKIEGVATPQDAQ [RPL33A]    2.38

Entry FGKTGDQKETKKGESEK [YOR098C/NUP1] : reported protein stability index = ?
3.45

Moving on to the next sequence: ASHNEKDQDSQIELSCN [SRP72]
2.9

Moving on to the next sequence: GQSSSIQSSLMTNLTYF [YCS4]
2.56

Moving on to the next sequence: QETCDKLRARLVEYGFD [SMC2]
1.96

Moving on to the next sequence: LDPSLRAPIYHSKFRSS [YML031W/NDC1]
1.71

Moving on to the next sequence: DHKYVCTFSMEPYHFIS [SRB8]
1.83

###

# protein stability index per entry
# experiment_description: protein stability index of a GFP-peptide fusion (yeast GPS) (PSI 1-4); higher = more stable; sorted into four equal gates, so the index is relative within each strain
# condition_parameters: pdr5∆
Write the value as a bare number.

Solved cases below.
QLPSKFTCSCNSLTVDG [RPN14]    2.39
DPKRLFEGNALIRRLVR [RPS9A]    3.52
KSITLKGRNNESNNKKY [YDL088C/ASM4]    3.11
LKVQKLSRPSLPKIKTV [RPL35A]    3.11
LSSELDSNKTLLHNHLK [SMC2]    3.26
HPGFGCWLSSVDVNTQK [RPN11]    1.25
DNSNVMTVKLESITYQK [RGR1]    2.43
IFSYLQFTSSLFKALKV [RGR1]    1.3

Entry ATQSGGVRPFGVSLLIA [PRE8] : reported protein stability index = ?
1.62

Moving on to the next sequence: DIPGVRFKVVKVSGVSL [RPS23A]
1.11

Moving on to the next sequence: ANAVQNNNGNSAASKKK [SRP21]
3.29

Moving on to the next sequence: AAPKKTRKAVRPQKLRA [RPL6B]
2.61

Moving on to the next sequence: EFETPTFLVSNDDEVSQ [RPN14]
2.89

Moving on to the next sequence: SKTLSLIQSYSLLDKPD [FAS1]
2.01

###

# experiment_description: protein stability index of a GFP-peptide fusion (yeast GPS) (PSI 1-4); higher = more stable; sorted into four equal gates, so the index is relative within each strain
# condition_parameters: pdr5∆
outcome_measure: protein stability index
Write the value as a bare number.

Solved cases below.
NSDHAKFTIEPGVLPVG [SNF2]    2.27
ANNNINSASSAPTPAAP [SWI1]    2.88
KFSLPFEQKGSQTTTND [YLR335W/NUP2]    3.08

Entry NVGELIEKNVMESIGSD [RRP4] : reported protein stability index = ?
3.03
